B1: library; numbered along this chain (parent)
chain: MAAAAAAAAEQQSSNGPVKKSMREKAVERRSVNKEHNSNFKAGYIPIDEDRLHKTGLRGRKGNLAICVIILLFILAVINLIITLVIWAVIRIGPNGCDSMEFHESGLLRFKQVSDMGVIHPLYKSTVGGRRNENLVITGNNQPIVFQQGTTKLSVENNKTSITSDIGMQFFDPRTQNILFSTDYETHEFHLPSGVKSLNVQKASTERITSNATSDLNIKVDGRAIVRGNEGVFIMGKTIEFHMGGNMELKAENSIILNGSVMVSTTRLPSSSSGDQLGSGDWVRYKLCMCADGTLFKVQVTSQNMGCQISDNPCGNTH

variants of: B1; test: SGCB cell-surface expression functional score (HA stain, bin4 vs bin1, normalised to synonymous) (log10 ratio); higher = more cell-surface SGCB (functional)
readout_label: SGCB cell-surface expression functional score (log10)

>>> observed_result("V32L")
-0.06
>>> observed_result("Y285V")
-0.66
>>> observed_result("E104A")
0.22
>>> observed_result("Q276S")
-0.37
>>> observed_result("G96P")
-1.62
>>> observed_result("L153V")
-0.65
>>> observed_result("N39S")
0.02
>>> observed_result("K61V")
0.07
>>> observed_result("K250R")
0.59
>>> observed_result("A7Y")
0.05
>>> observed_result("P143T")
-0.41
>>> observed_result("G315E")
0.04
>>> observed_result("N141S")
0.17
>>> observed_result("R51Q")
0.54
>>> observed_result("I208G")
-1.48
>>> observed_result("K286S")
-1.02
>>> observed_result("Q299Y")
-0.66
>>> observed_result("F110I")
-0.31
>>> observed_result("I45W")
0.91
>>> observed_result("P173V")
0.67
>>> observed_result("Q11M")
-0.03
>>> observed_result("V136M")
-0.57
>>> observed_result("L153N")
-1.69
>>> observed_result("C314S")
-0.27
>>> observed_result("L153C")
-0.34
>>> observed_result("L84D")
-0.05
>>> observed_result("G106L")
-1.62
>>> observed_result("S105F")
-0.75
>>> observed_result("D292T")
-0.67
>>> observed_result("G129T")
-0.06
>>> observed_result("F171Q")
0.8
>>> observed_result("N177V")
0.4
>>> observed_result("S99F")
0.86
>>> observed_result("K34W")
0.11
>>> observed_result("M100K")
-2.02
>>> observed_result("R29C")
0.5
>>> observed_result("R23Y")
0.05
>>> observed_result("F102P")
-1.4
>>> observed_result("I74R")
-1.42
>>> observed_result("V127G")
-0.79
>>> observed_result("V283E")
0.19
>>> observed_result("M305T")
0.02
>>> observed_result("P46W")
-0.33
>>> observed_result("K19F")
0.01
>>> observed_result("V68Q")
-0.15
>>> observed_result("I74D")
-0.26
>>> observed_result("G315D")
-0.41
>>> observed_result("T126A")
0.13
>>> observed_result("K124Q")
0.27
>>> observed_result("K34L")
0.21
>>> observed_result("I74N")
0.04
>>> observed_result("H36Q")
0.22
>>> observed_result("G315R")
0.03
>>> observed_result("N79E")
0.06
>>> observed_result("A76D")
-0.4
>>> observed_result("L191M")
0.28
>>> observed_result("L135R")
-0.77
>>> observed_result("L191G")
-1.07
>>> observed_result("M247K")
-1.56
>>> observed_result("S210G")
-0.16
>>> observed_result("D165A")
0.17
>>> observed_result("A26G")
-0.21
>>> observed_result("K196I")
-0.46
>>> observed_result("N95K")
0.16
>>> observed_result("L64C")
0.26
>>> observed_result("C288T")
-0.27
>>> observed_result("I119W")
-1.04
>>> observed_result("E28P")
0.08
>>> observed_result("V145L")
-0.09
>>> observed_result("M247P")
-1.08
>>> observed_result("G194I")
-1.66
>>> observed_result("L57K")
0.32
>>> observed_result("E104F")
-0.24
>>> observed_result("E24Q")
0.01
>>> observed_result("L122N")
-0.12
>>> observed_result("E185H")
-1.02
>>> observed_result("V85W")
-0.09
>>> observed_result("G128F")
0.6
>>> observed_result("H190V")
-0.28
>>> observed_result("S273Q")
-0.2
>>> observed_result("N140W")
-0.93
>>> observed_result("I162N")
-0.83
>>> observed_result("F241M")
0.82
>>> observed_result("K111L")
-0.35
>>> observed_result("V145T")
0.04
>>> observed_result("E156K")
-0.6
>>> observed_result("D281F")
0.45
>>> observed_result("H242Y")
0.47
>>> observed_result("L277I")
0.41
>>> observed_result("N258T")
-0.05
>>> observed_result("L84N")
-0.44
